Catalogue of viability, T/C readings, one per entry.
test system: 496974-208-R-J2-PDC complex spheroids, growth % test/control; test: Anticancer human tumor 496974-208-R-J2-PDC patient-derived pancreatic carcinoma cell line growth inhibition [CLK]; conditions: second compound 3.16 µM; first compound 1 µM; stronger effect = lower value

{"compound": "CCCS(=O)(=O)Nc1ccc(F)c(C(=O)c2c[nH]c3ncc(-c4ccc(Cl)cc4)cc23)c1F + CNC(=O)c1ccc(Nc2nc(OC3CCCC3)c3c(-c4ccc5nc(C)oc5c4)c[nH]c3n2)c(OC)c1", "viability, T/C, %": 63.3}
{"compound": "CC(CO)NC(=O)c1cc(-c2ccc(Cl)cc2)nn(-c2cnn(C)c2)c1=O (stereo not drawn) + CN1CCN(c2cc(C(=O)Nc3cc4cc(-c5cnn(C)c5)ccc4cn3)ccn2)CC1", "viability, T/C, %": 0.4}
{"compound": "CCc1c2c(nc3ccc(O)cc13)-c1cc3c(c(=O)n1C2)COC(=O)[C@]3(O)CC + CN1CCN(c2cc(C(=O)Nc3cc4cc(-c5cnn(C)c5)ccc4cn3)ccn2)CC1", "viability, T/C, %": 0.29}

###

test system: 496974-208-R-J2-PDC complex spheroids, growth % test/control; experiment: Anticancer human tumor 496974-208-R-J2-PDC cell line growth inhibition [CLK]; settings: second compound 0.316 µM; first compound 0.3 µM; stronger effect = lower value;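 further: spheroids exposed to the drugs for 7 days before readout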;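 on viability, T/C: 100% = DMSO vehicle control wells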
Catalogue of viability, T/C readings, one per entry.
property: viability, T/C

{"molecule": "C=CC(=O)Nc1cc(Nc2nccc(-c3cn(C)c4ccccc34)n2)c(OC)cc1N(C)CCN(C)C + CN1CCN(c2cc(C(=O)Nc3cc4cc(-c5cnn(C)c5)ccc4cn3)ccn2)CC1", "assayed system": "496974-208-R-J2-PDC complex spheroids, growth % test/control", "property": "viability, T/C", "test result": "4.42%"}
{"molecule": "CC(C)CC(NC(=O)C(Cc1ccccc1)NC(=O)c1cnccn1)B(O)O (stereo not given) + CN1CCN(c2cc(C(=O)Nc3cc4cc(-c5cnn(C)c5)ccc4cn3)ccn2)CC1", "assayed system": "496974-208-R-J2-PDC complex spheroids, growth % test/control", "property": "viability, T/C", "test result": "2.72%"}
{"molecule": "NC(=O)C(=Cn1cnc(-c2cc(C(F)(F)F)cc(C(F)(F)F)c2)n1)c1cncnc1 + CN1CCN(c2cc(C(=O)Nc3cc4cc(-c5cnn(C)c5)ccc4cn3)ccn2)CC1", "assayed system": "496974-208-R-J2-PDC complex spheroids, growth % test/control", "property": "viability, T/C", "test result": "0.41%"}
{"molecule": "NC(=O)C(=Cn1cnc(-c2cc(C(F)(F)F)cc(C(F)(F)F)c2)n1)c1cncnc1 + CNC(=O)c1ccc(Nc2nc(OC3CCCC3)c3c(-c4ccc5nc(C)oc5c4)c[nH]c3n2)c(OC)c1", "assayed system": "496974-208-R-J2-PDC complex spheroids, growth % test/control", "property": "viability, T/C", "test result": "21.4%"}
{"molecule": "C=CC(=O)Nc1cc(Nc2nccc(-c3cn(C)c4ccccc34)n2)c(OC)cc1N(C)CCN(C)C + CNC(=O)c1ccc(Nc2nc(OC3CCCC3)c3c(-c4ccc5nc(C)oc5c4)c[nH]c3n2)c(OC)c1", "assayed system": "496974-208-R-J2-PDC complex spheroids, growth % test/control", "property": "viability, T/C", "test result": "51.2%"}

###

tested on: 496974-208-R-J2-PDC complex spheroids, growth % test/control; test: Anticancer human tumor 496974-208-R-J2-PDC cell line growth inhibition [CLK]; details: curve of first compound; second compound 1 µM;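 further: spheroids exposed to the drugs for 7 days before readout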

{"molecule": "CCN1CCN(Cc2ccc(Nc3ncc(F)c(-c4cc(F)c5nc(C)n(C(C)C)c5c4)n3)nc2)CC1 + CN1CCN(c2cc(C(=O)Nc3cc4cc(-c5cnn(C)c5)ccc4cn3)ccn2)CC1", "IC50": "< 0.00316 µM"}
{"molecule": "Cn1ncnc1[C@H]1c2n[nH]c(=O)c3cc(F)cc(c23)N[C@@H]1c1ccc(F)cc1 + CN1CCN(c2cc(C(=O)Nc3cc4cc(-c5cnn(C)c5)ccc4cn3)ccn2)CC1", "IC50": "< 0.000316 µM"}
{"molecule": "COC1C=CCC(C)C(C)S(=O)(=O)NC(=O)c2ccc3c(c2)N(CC2CCC21)CC1(CCCc2cc(Cl)ccc21)CO3 (stereo not given) + CN1CCN(c2cc(C(=O)Nc3cc4cc(-c5cnn(C)c5)ccc4cn3)ccn2)CC1", "IC50": "< 0.0316 µM"}
{"molecule": "CC1COCCN1c1cc(C2(S(C)(=N)=O)CC2)nc(-c2ccnc3[nH]ccc23)n1 (stereo not given) + CNC(=O)c1ccc(Nc2nc(OC3CCCC3)c3c(-c4ccc5nc(C)oc5c4)c[nH]c3n2)c(OC)c1", "IC50": "2.15 µM"}
{"molecule": "CCc1c2c(nc3ccc(O)cc13)-c1cc3c(c(=O)n1C2)COC(=O)[C@]3(O)CC + CN1CCN(c2cc(C(=O)Nc3cc4cc(-c5cnn(C)c5)ccc4cn3)ccn2)CC1", "IC50": "< 0.00316 µM"}
{"molecule": "COC1C=CCC(C)C(C)S(=O)(=O)NC(=O)c2ccc3c(c2)N(CC2CCC21)CC1(CCCc2cc(Cl)ccc21)CO3 (stereo not given) + CNC(=O)c1ccc(Nc2nc(OC3CCCC3)c3c(-c4ccc5nc(C)oc5c4)c[nH]c3n2)c(OC)c1", "IC50": "0.0521 µM"}
{"molecule": "CCCS(=O)(=O)Nc1ccc(F)c(C(=O)c2c[nH]c3ncc(-c4ccc(Cl)cc4)cc23)c1F + CN1CCN(c2cc(C(=O)Nc3cc4cc(-c5cnn(C)c5)ccc4cn3)ccn2)CC1", "IC50": "< 0.0316 µM"}
{"molecule": "CCN1CCN(Cc2ccc(Nc3ncc(F)c(-c4cc(F)c5nc(C)n(C(C)C)c5c4)n3)nc2)CC1 + CNC(=O)c1ccc(Nc2nc(OC3CCCC3)c3c(-c4ccc5nc(C)oc5c4)c[nH]c3n2)c(OC)c1", "IC50": "> 1 µM"}
{"molecule": "O=c1[nH]cc(F)c(=O)[nH]1 + CNC(=O)c1ccc(Nc2nc(OC3CCCC3)c3c(-c4ccc5nc(C)oc5c4)c[nH]c3n2)c(OC)c1", "IC50": "6.38 µM"}
{"molecule": "CC1(C)CCC(CN2CCN(c3ccc(C(=O)NS(=O)(=O)c4ccc(NCC5CCOCC5)c([N+](=O)[O-])c4)c(Oc4cnc5[nH]ccc5c4)c3)CC2)=C(c2ccc(Cl)cc2)C1 + CN1CCN(c2cc(C(=O)Nc3cc4cc(-c5cnn(C)c5)ccc4cn3)ccn2)CC1", "IC50": "< 0.0316 µM"}

###

test system: 496974-208-R-J2-PDC complex spheroids, growth % test/control; assay: Anticancer human tumor 496974-208-R-J2-PDC cell line growth inhibition [CLK]; settings: curve of first compound; second compound 0.0316 µM;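 further: spheroids exposed to the drugs for 7 days before readout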
property: IC50 (nM)

{"compound": "C#Cc1c(F)ccc2cc(O)cc(-c3ncc4c(N5CC6CCC(C5)N6)nc(OCC56CCCN5CC(F)C6)nc4c3F)c12 (stereo not given) + CNC(=O)c1ccc(Nc2nc(OC3CCCC3)c3c(-c4ccc5nc(C)oc5c4)c[nH]c3n2)c(OC)c1", "value units": "nM", "operator symbol": "=", "test result": 204}
{"compound": "COc1ccc([C@@H](O)c2cc(-c3ncnc4cc(N5CCOCC5)ccc34)c(F)cc2Cl)nn1 + CNC(=O)c1ccc(Nc2nc(OC3CCCC3)c3c(-c4ccc5nc(C)oc5c4)c[nH]c3n2)c(OC)c1", "value units": "nM", "operator symbol": "=", "test result": 7280}
{"compound": "Cn1ncnc1[C@H]1c2n[nH]c(=O)c3cc(F)cc(c23)N[C@@H]1c1ccc(F)cc1 + CN1CCN(c2cc(C(=O)Nc3cc4cc(-c5cnn(C)c5)ccc4cn3)ccn2)CC1", "value units": "nM", "operator symbol": ">", "test result": 100}
{"compound": "CC(CO)NC(=O)c1cc(-c2ccc(Cl)cc2)nn(-c2cnn(C)c2)c1=O (stereo not given) + CNC(=O)c1ccc(Nc2nc(OC3CCCC3)c3c(-c4ccc5nc(C)oc5c4)c[nH]c3n2)c(OC)c1", "value units": "nM", "operator symbol": ">", "test result": 10000}
{"compound": "CCN1CCN(Cc2ccc(Nc3ncc(F)c(-c4cc(F)c5nc(C)n(C(C)C)c5c4)n3)nc2)CC1 + CN1CCN(c2cc(C(=O)Nc3cc4cc(-c5cnn(C)c5)ccc4cn3)ccn2)CC1", "value units": "nM", "operator symbol": ">", "test result": 1000}

###

Catalogue of viability, T/C readings, one per entry.
system: 496974-208-R-J2-PDC complex spheroids, growth % test/control; assay: Anticancer human tumor 496974-208-R-J2-PDC cell line growth inhibition [CLK]; details: second compound 0.316 µM; first compound 0.01 µM; stronger effect = lower value;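 further: spheroids exposed to the drugs for 7 days before readout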;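 on viability, T/C: 100% = DMSO vehicle control wells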

{"molecule": "CCc1c2c(nc3ccc(O)cc13)-c1cc3c(c(=O)n1C2)COC(=O)[C@]3(O)CC + CN1CCN(c2cc(C(=O)Nc3cc4cc(-c5cnn(C)c5)ccc4cn3)ccn2)CC1", "viability, T/C, %": 5.74}
{"molecule": "CCN1CCN(Cc2ccc(Nc3ncc(F)c(-c4cc(F)c5nc(C)n(C(C)C)c5c4)n3)nc2)CC1 + CNC(=O)c1ccc(Nc2nc(OC3CCCC3)c3c(-c4ccc5nc(C)oc5c4)c[nH]c3n2)c(OC)c1", "viability, T/C, %": 81.9}
{"molecule": "COc1c(OCCCN2CCOCC2)ccc2c3n(c(=NC(=O)c4cnc(N)nc4)nc12)CCN3 + CN1CCN(c2cc(C(=O)Nc3cc4cc(-c5cnn(C)c5)ccc4cn3)ccn2)CC1", "viability, T/C, %": 3.99}
